# target: SARS-COV-2 RBD-mFc (SARS-CoV-2)
# protocolDescription: Luminex beads
propertyMeasured: binding result

mAb10986 (antibody, V domains shown) VH: EVQLVESGGGLVQPGGSLRLSCAASEFTVSSNYMSWVRQAPGKGLEWVSVIYSGGSTFYADSVKGRFTISRDNSKNTLYLQMNSLRAEDTAVYYCARALPYGDLHFDYWGQGTLVTVSS VL: QSVLTQPPSVSGAPGQRVTISCTGSSSNIGTGYDVHWYQQLPGTAPKLLIYGNTNRPSGVPDRFSGSKSGTSASLAITGLQAEDEADYYCQSYDSSLSDSYVFGTGTKVTVLG: binds
mAb11006 (antibody, V domains shown) VH: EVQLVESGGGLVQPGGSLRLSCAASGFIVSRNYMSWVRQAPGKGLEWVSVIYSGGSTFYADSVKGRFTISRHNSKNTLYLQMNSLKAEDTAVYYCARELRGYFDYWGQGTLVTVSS VL: DIQLTQSPSFLSASVGDRVTITCWASQGISSYLAWYQQKPGKAPKLLIYAASTLQSGVPSRFSGSGSGTEFTLTISSLQPEDFATYYCQLLNSYPYTFGQGTKLEIK: binds
